FYI, the data here is from patent US5942522A.

EXPERIMENT_NOTES: Compound toxicity assay: inhibition of HeLa cell translation (3H-leucine incorporation)
Type: cell-based
ASSAY_SETUP: human; Table II; HeLa cells; read-out: Cytotoxicity 3H-LEU assay IC50
Hi there, I'd appreciate the recorded CC50 at 24 h for every entry that follows.
Give bare numbers, in µg/mL.

[
  {
    "SMILES_ENTRY": "CCCCCCn1c(=O)c(Cn2ncnn2)c(OC)c2cc(C)ccc21",
    "ASSAY_ENDPOINT": "CC50 at 24 h",
    "DATA_VALUE": 17
  },
  {
    "SMILES_ENTRY": "CCCCCCn1c(=O)c(Cn2cnnn2)c(OC)c2ccccc21",
    "ASSAY_ENDPOINT": "CC50 at 24 h",
    "DATA_VALUE": 18
  },
  {
    "SMILES_ENTRY": "CCCCCCn1c(=O)c(CO)c(OC)c2cc(C)ccc21",
    "ASSAY_ENDPOINT": "CC50 at 24 h",
    "DATA_VALUE": 25
  },
  {
    "SMILES_ENTRY": "Cc1cc2c(OCCN(C)C)c(SCO)c(=O)n(Cc3ccc(O[Si](C)(C)C(C)(C)C)cc3)c2cc1C",
    "ASSAY_ENDPOINT": "CC50 at 24 h",
    "DATA_VALUE": 15
  },
  {
    "SMILES_ENTRY": "CCCCCCn1c(=O)c(Cn2cncn2)c(OC)c2ccccc21",
    "ASSAY_ENDPOINT": "CC50 at 24 h",
    "DATA_VALUE": 18
  },
  {
    "SMILES_ENTRY": "CCCCCCn1c(=O)c(C=NO)c(OC)c2ccccc21",
    "ASSAY_ENDPOINT": "CC50 at 24 h",
    "DATA_VALUE": 25
  },
  {
    "SMILES_ENTRY": "CCCCCCn1c(=O)c(Cn2ccnc2)c(OC)c2cc(C)ccc21",
    "ASSAY_ENDPOINT": "CC50 at 24 h",
    "DATA_VALUE": 17
  },
  {
    "SMILES_ENTRY": "CCCCCCn1c(=O)c(C=NOC)c(OC)c2ccccc21",
    "ASSAY_ENDPOINT": "CC50 at 24 h",
    "DATA_VALUE": 12.6
  },
  {
    "SMILES_ENTRY": "COc1c(Sc2ccccc2)c(=O)n(C)c2ccc(F)cc12",
    "ASSAY_ENDPOINT": "CC50 at 24 h",
    "DATA_VALUE": 25
  }
]

Turning to the following molecule.
## Task Return reported CC50 at 24 h; argument: CCCCCCn1c(=O)c(CBr)c(OC)c2ccccc21
## Result 25

====

SYSTEM: cGMP phosphodiesterase (cGMP-PDE) (Bos taurus, UniProt Q28156)
Construct: is a homogeneous enzyme obtained from bovine lung; from tissue; host or cells: bovine lung
EXPERIMENT_NOTES: Inhibition of cGMP phosphodiesterase in vitro
Format: biochemical, bovine
ASSAY_SETUP: Table VI; 1 μM 3H-cGMP, pH 7.5, 25 min, room temperature
Assign IC50 to each entry below.
Give bare numbers, in µM.

Examples from the recorded data:
[
  {
    "SMILES_ENTRY": "CCCCCCn1c(=O)c(CO)c(OC)c2cc(C)ccc21",
    "SYSTEM": "cGMP phosphodiesterase (cGMP-PDE) (Bos taurus, UniProt Q28156)",
    "UNIT_LABEL": "µM",
    "IC50": 6
  },
  {
    "SMILES_ENTRY": "CCOC(=O)c1c(OCCN(C)C)c2cc(C)ccc2n(Cc2ccccc2)c1=O",
    "SYSTEM": "cGMP phosphodiesterase (cGMP-PDE) (Bos taurus, UniProt Q28156)",
    "UNIT_LABEL": "µM",
    "IC50": 4
  }
]

Next up:
## Task So what's the measured IC50 for this one? CCCCCCn1c(=O)c(C(=O)OCC)c(OC)c2cc(C)ccc21
## Result 3
